Measured interaction score by item
assay target: T1, P3A-bA
T1 chain: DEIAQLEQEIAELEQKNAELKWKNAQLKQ
assay protocol: two-hybrid library CCNG1;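 also: natural log of median RNA to DNA barcode read ratio; higher means stronger binding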
Reply: number alone, nothing else.

Here's what some known entries look like.
>>> reading("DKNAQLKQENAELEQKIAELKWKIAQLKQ [P10A-bA]")
0.562
>>> reading("DENAQLEQEIAELEQEIAELEWKNAQLKQ [P11A-bA]")
-0.656
>>> reading("DKIAQLKQKNAELKQKNAELKWKIAQLKQ [P2A-bA]")
-0.686

Now look at this one.
Fill in: interaction score of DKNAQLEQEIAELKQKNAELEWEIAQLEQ [4H3185-bA] is ___
-0.564
